- TARGET_ENTITY: human TLR9 (Homo sapiens (Human), UniProt Q9NR96)
- Sequence (Q9NR96 26-1032): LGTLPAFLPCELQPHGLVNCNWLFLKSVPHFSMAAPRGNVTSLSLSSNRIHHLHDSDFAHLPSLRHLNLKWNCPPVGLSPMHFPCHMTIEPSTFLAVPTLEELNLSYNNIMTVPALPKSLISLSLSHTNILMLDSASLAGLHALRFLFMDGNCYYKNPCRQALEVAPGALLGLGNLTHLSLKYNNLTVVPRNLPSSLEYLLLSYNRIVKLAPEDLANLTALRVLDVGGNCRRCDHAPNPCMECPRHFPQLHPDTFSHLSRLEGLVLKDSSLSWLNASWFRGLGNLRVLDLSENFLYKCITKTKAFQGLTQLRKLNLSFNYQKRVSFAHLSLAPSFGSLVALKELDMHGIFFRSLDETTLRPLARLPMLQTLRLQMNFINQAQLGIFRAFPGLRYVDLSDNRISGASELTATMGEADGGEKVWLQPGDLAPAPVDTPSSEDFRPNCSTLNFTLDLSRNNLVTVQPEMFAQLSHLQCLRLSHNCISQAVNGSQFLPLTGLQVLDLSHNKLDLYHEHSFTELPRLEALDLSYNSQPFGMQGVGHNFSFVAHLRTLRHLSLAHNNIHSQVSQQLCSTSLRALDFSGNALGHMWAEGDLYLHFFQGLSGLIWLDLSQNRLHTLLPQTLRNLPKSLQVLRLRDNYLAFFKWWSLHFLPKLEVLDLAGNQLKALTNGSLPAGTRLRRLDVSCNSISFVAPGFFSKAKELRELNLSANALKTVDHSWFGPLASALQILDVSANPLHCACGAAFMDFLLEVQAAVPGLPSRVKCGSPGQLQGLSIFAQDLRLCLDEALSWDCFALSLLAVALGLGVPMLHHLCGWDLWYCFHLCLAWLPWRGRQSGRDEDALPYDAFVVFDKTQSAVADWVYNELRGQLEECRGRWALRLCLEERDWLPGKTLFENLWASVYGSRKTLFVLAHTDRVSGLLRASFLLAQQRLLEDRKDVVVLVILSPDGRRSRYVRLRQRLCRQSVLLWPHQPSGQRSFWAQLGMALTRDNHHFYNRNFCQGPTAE
- ASSAY_METHOD_TEXT: TLR9 inhibition reporter assay (HEK-Blue SEAP);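 further: SEAP driven by an IFN-β minimal promoter with NF-κB and AP-1 sites, read after 22 h, compounds dosed 0.05 nM–50 µM, inhibition scaled between agonist plus DMSO and reference-inhibitor wells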
- CONDITIONS: read-out: TLR9 IC50; HEK-Blue cells overexpressing human TLR9, ODN2006 5 nM stimulation, SEAP reporter
One threshold, 2 µM, splits the recorded IC50 values: lower ones are t, equal or higher ones are f.

COMPOUND	LABEL
Cc1nccc(CN(Cc2ccnc(C)n2)C2CCN(c3ccc4[nH]c(-c5cn6ncnc6c(C)c5C)c(C(C)C)c4n3)CC2)n1	f
COc1cc(-c2[nH]c3ccc(N4CCN(C5CCS(=O)(=O)CC5)CC4)nc3c2C(C)C)cn2ncnc12	f
COC(=O)N1CCN(C2CN(c3ccc4[nH]c(-c5cn6ncnc6c(C)c5C)c(C(C)C)c4n3)C2)CC1	f
COc1cc(-c2[nH]c3ccc(N4CCN(CCS(C)(=O)=O)CC4)nc3c2C(C)C)cn2ncnc12	f
Cc1c(-c2[nH]c3ccc(N4CCN(CCC#N)CC4)nc3c2C(C)C)cn2ncnc2c1C	f
COc1cc(-c2[nH]c3ccc(N4CCN(CCC(C)C)CC4)nc3c2C(C)C)cn2ncnc12	f
CC(C)c1c(-c2cn(C)c3ncccc23)[nH]c2ccc(C3CCC(N(C)CC(=O)N(C)C)CC3)nc12 (stereo not drawn) [Example 201]	t
CNC1CCC(c2ccc3[nH]c(-c4cn5ncnc5c(C)c4C)c(C(C)C)c3n2)CC1 (single isomer, unassigned) [Example 369]	t
COc1cc(-c2[nH]c3cc(C)c(C4CCC(N(C)CC(C)(C)C)CC4)nc3c2C(C)C)cn2ncnc12 (stereo not drawn) [Example 336]	f
CC(C)c1c(-c2cn(C)c3ncncc23)[nH]c2ccc(N3CCN(C(=O)CCN(C)C)CC3)nc12	f
Cc1c(-c2[nH]c3ccc(N4CCC(N)CC4)nc3c2C(C)C)cn2ncnc2c1C	f
COc1cc(-c2[nH]c3cc(C)c(C4CCC(N(C)C5COC5)CC4)nc3c2C(C)C)cn2ncnc12 (stereo not drawn) [Example 330]	f
Cc1c(-c2[nH]c3ccc(N4CC(N(C)C(=O)CN(C)C)C4)nc3c2C(C)C)cn2ncnc2c1C [Example 25]	f
Cc1cc(-c2[nH]c3ccc(C4CCC(NC5COC5)CC4)nc3c2C(C)C)cn2ncnc12 (stereo not drawn) [Example 279]	t

* * *

- TARGET_ENTITY: human TLR8 (Homo sapiens (Human))
- Sequence (Q9NR97 27-1041): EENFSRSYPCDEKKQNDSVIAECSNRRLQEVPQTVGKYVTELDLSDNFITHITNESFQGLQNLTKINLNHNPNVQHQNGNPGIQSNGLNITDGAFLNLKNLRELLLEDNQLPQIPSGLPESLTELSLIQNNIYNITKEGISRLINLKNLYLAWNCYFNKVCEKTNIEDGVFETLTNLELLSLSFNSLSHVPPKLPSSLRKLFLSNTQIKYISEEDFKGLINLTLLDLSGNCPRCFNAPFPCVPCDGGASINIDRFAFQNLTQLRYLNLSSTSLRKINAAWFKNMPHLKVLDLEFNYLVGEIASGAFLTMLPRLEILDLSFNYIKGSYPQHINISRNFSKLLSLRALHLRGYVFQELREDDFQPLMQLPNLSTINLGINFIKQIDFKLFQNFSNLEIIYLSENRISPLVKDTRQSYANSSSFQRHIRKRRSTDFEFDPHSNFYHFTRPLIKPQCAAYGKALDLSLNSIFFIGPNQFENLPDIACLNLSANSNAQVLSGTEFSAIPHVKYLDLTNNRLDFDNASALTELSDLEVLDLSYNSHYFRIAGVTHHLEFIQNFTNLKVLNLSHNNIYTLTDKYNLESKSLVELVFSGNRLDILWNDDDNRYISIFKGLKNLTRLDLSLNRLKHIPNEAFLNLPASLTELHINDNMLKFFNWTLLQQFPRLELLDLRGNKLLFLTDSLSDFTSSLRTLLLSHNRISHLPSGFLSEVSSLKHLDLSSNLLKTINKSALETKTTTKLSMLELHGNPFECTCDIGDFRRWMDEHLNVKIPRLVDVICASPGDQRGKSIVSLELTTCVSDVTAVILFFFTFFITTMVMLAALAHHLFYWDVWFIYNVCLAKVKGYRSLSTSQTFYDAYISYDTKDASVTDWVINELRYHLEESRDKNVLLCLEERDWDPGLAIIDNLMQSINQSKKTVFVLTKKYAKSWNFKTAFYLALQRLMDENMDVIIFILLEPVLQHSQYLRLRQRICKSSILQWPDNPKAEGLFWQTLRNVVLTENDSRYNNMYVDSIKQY
- ASSAY_METHOD_TEXT: TLR8 inhibition reporter assay (HEK-Blue SEAP)
- CONDITIONS: read-out: TLR8 IC50; HEK-Blue cells overexpressing human TLR8, R848 15.9 μM stimulation, SEAP reporter
pIC50: −log10 of the molar value.

MOLECULE	pIC50
CCn1cc(-c2[nH]c3ccc(C4CCC(NC5CCOCC5)CC4)nc3c2C(C)C)c2cccnc21 (centres unmarked) [Example 292]	6.90
CNC1CCC(c2ccc3[nH]c(-c4cn(CC#N)c5ncccc45)c(C(C)C)c3n2)CC1 (centres unmarked) [Example 263]	8.12
Cc1c(-c2[nH]c3ccc(N4CCNC[C@H]4C)nc3c2C(C)C)cn2ncnc2c1C	8.80
COc1ncc(CN(C)C2CCN(c3ccc4[nH]c(-c5cn6ncnc6c(C)c5C)c(C(C)C)c4n3)CC2)cn1	9.38
Cc1c(-c2[nH]c3ccc(N4CCC(NC5COC5)C4)nc3c2C(C)C)cn2ncnc2c1C (racemic)	8.70
Cc1c(-c2[nH]c3ccc(C4CCC(N(C)C(C)C)CC4)nc3c2C(C)C)cn2ncnc2c1C (centres unmarked)	8.02
Cc1c(-c2[nH]c3ccc(N4CCC(N(C)Cc5ncnn5C)CC4)nc3c2C(C)C)cn2ncnc2c1C	8.40
CC(C)c1c(-c2cn(C)c3ncccc23)[nH]c2ccc(C3CCC(N4CC5(C4)CS(=O)(=O)C5)CC3)nc12 (centres unmarked) [Example 255]	9.60
COc1cc(-c2[nH]c3cc(C)c(C4CCC(N5CC6(COC6)C5)CC4)nc3c2C(C)C)cn2ncnc12 (centres unmarked) [Example 319]	8.39
COc1cc(-c2[nH]c3ccc(N4CC(N)C4)nc3c2C(C)C)cn2ncnc12	8.68
CC(C)c1c(-c2cn(CC#N)c3ncccc23)[nH]c2ccc(C3CCC(NCC(=O)N(C)C)CC3)nc12 (centres unmarked) [Example 276]	8.05
Cc1c(-c2[nH]c3ccc(C4CCC(N(C)CCO)CC4)nc3c2C(C)C)cn2ncnc2c1C (centres unmarked)	8.10
Cc1c(-c2[nH]c3ccc(N4CC(NCC(=O)N(C)C)C4)nc3c2C(C)C)cn2ncnc2c1C [Example 22]	7.92
COc1cc(-c2[nH]c3ccc(N4CCN(C(C)CO)CC4)nc3c2C(C)C)cn2ncnc12 (centres unmarked)	9.09
